attribute.measured: melting point

| record.smiles | melting point |
| --- | --- |
| Cc1ccccc1C(=O)N[C@H]1CCC(=O)N2CCC[C@@H](C(=O)N[C@H](C=O)CC(=O)O)N2C1=O | 156 to 159 °C |

Ask: Quickly give me recorded melting point for CC(=O)Nc1ccc(C(=O)NN2CCC(=O)N3CCC[C@@H](C(=O)N[C@H](C=O)CC(=O)O)N3C2=O)cc1
Result: 235 to 240 °C

Ask: Quickly give me recorded melting point for O=C[C@H](CC(=O)O)NC(=O)[C@@H]1CCCN2C(=O)CCN(NC(=O)c3ccc4c(c3)OCO4)C(=O)N12
Result: 170 to 175 °C

----------
This section presents compounds with their documented melting point values.

# count of solved cases: 5
| compound | attribute.measured | recorded.result |
| --- | --- | --- |
| O=C[C@H](CCC(=O)O)NC(=O)[C@@H]1CCCN2C(=O)CC[C@H](NC(=O)c3ccccc3)C(=O)N12 [Compound 235e] | melting point | 142 °C (dec.) |
| O=C(O)C[C@H](NC(=O)[C@@H]1CCCN2C(=O)CC[C@H](NC(=O)OCc3ccccc3)C(=O)N12)C(=O)COC(=O)c1c(Cl)cccc1Cl [Compound 217d] | melting point | 85 to 110 °C |
| O=C[C@H](CC(=O)O)NC(=O)[C@@H]1CCCN2C(=O)CCN(NC(=O)c3cc4ccccc4[nH]3)C(=O)N12 | melting point | 210 to 215 °C |
| CC(=O)Nc1ccc(C(=O)N[C@H]2CCC(=O)N3CCC[C@@H](C(=O)N[C@H]4CC(=O)OC4OCc4ccccc4)N3C2=O)cc1 (stereo partly drawn) [Compound 213x] | melting point | 150 to 170 °C |
| O=C[C@H](CC(=O)O)NC(=O)[C@@H]1CCCN2C(=O)CC[C@H](NC(=O)c3ccc(O)cc3)C(=O)N12 | melting point | > 260 °C |

Ask: Quickly give me recorded melting point for O=C[C@H](CC(=O)O)NC(=O)[C@@H]1CCCN2C(=O)CC[C@H](NC(=O)c3cc4ccccc4[nH]3)C(=O)N12
Result: 150 °C

----------
This section presents molecules with their documented IC50 values.
Tested on: IL-1β, human whole blood
test.description: Whole blood assay for IL-1β production
Format: cell-based
experimental.setup: Homo sapiens, * = values obtained upon reassay; read-out: Whole human blood IC50
Return type: number; implicit unit µM.

# count of solved cases: 2
| record.smiles | output.unit | IC50 |
| --- | --- | --- |
| O=C[C@H](CC(=O)O)NC(=O)[C@@H]1CCCN2C(=O)CC[C@H](NC(=O)c3ccc(Cl)cc3)C(=O)N12 | µM | 3.4 |
| COc1cc(C(=O)N[C@H]2CCC(=O)N3CCC[C@@H](C(=O)N[C@H](C=O)CC(=O)O)N3C2=O)nc2ccccc12 | µM | 5 |

// below: IC50 requested for another molecule
Ask: Quickly give me recorded IC50 for Cc1nc(-c2ccc(C(F)(F)F)cc2)sc1C(=O)N[C@H]1CCC(=O)N2CCC[C@@H](C(=O)N[C@H](C=O)CC(=O)O)N2C1=O
Result: 2.5

----------
system.name: ICE (Homo sapiens)
Sequence (P29466 120-297 limits assumed): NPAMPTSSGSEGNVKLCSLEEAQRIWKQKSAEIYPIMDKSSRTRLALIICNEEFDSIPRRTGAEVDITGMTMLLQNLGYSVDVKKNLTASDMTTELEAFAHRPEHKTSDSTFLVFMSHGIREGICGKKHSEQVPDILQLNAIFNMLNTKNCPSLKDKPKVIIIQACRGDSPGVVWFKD
Sequence (P29466 317-404 limits assumed): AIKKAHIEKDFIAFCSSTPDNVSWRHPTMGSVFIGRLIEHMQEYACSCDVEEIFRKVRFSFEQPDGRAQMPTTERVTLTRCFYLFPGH
test.description: Enzyme assay with UV-visible substrate (visible ICE assay, Succinyl-Tyr-Val-Ala-Asp-pNitroanilide)
Type: biochemical
experimental.setup: Table 5
Exam item: assign TRUE to entries whose Ki is below 0.007 µM and FALSE to entries at or above 0.007 µM. Note that a value of exactly 0.007 µM receives FALSE.

Sample answers from the record:
| record.smiles | class.name |
| --- | --- |
| CC(=O)N1C[C@H](NC(=O)c2ccc3ccccc3n2)C(=O)N(CC(=O)N[C@H](C=O)CC(=O)O)c2ccccc21 | FALSE |
| O=C[C@H](CC(=O)O)NC(=O)[C@@H]1CCCN2C(=O)CC[C@H](NC(=O)c3cccc(Cl)c3)C(=O)N12 | TRUE |
| O=C[C@H](CC(=O)O)NC(=O)[C@@H]1CCCN2C(=O)CCN(NS(=O)(=O)c3ccccc3)C(=O)N12 | FALSE |
| O=C[C@H](CC(=O)O)NC(=O)[C@@H]1CCCN2C(=O)CC[C@H](NC(=O)c3cccc4ccccc34)C(=O)N12 | TRUE |
| CC(=O)N1C[C@H](NC(=O)/C=C/c2ccccc2)C(=O)N(CC(=O)N[C@H](C=O)CC(=O)O)c2ccccc21 | FALSE |

Now for another entry.
Ask: Determine whether this compound shows Ki lower than 0.007 µM (ties excluded): COC(=O)N[C@H]1CCC(=O)N2CCC[C@@H](C(=O)N[C@H](C=O)CC(=O)O)N2C1=O
Result: FALSE

----------
system.name: ICE (Homo sapiens)
test.description: Enzyme assay with UV-visible substrate (visible ICE assay, Succinyl-Tyr-Val-Ala-Asp-pNitroanilide)
Assay type: biochemical
experimental.setup: Table 17
attribute.measured: Ki (nM)
Return type: number; implicit unit nM.

| compound | attribute.measured | recorded.result |
| --- | --- | --- |
| CCOC(=O)CC(=COC(C)=O)NC(=O)[C@@H]1CCCN2C(=O)CC[C@H](NC(=O)c3ccccc3)C(=O)N12 [Compound 2100j] | Ki | 30000 |
| COc1c(C)cc(C(=O)N[C@H]2CN(C(=O)CO)c3ccccc3N(CC(=O)N[C@H](C=O)CC(=O)O)C2=O)cc1C [Compound 694] | Ki | 3 |
| CC(=O)N1C[C@H](NC(=O)CCc2ccc3c(c2)OCO3)C(=O)N(CC(=O)N[C@H](C=O)CC(=O)O)c2ccccc21 [Compound 707] | Ki | 180 |

// below: Ki requested for another compound
Ask: Give Ki only, for COc1ccc(C(=O)C(=O)NN2CCC(=O)N3CCC[C@@H](C(=O)N[C@H](C=O)CC(=O)O)N3C2=O)cc1 [Compound 1110] , using ICE (Homo sapiens) data.
Result: 45

----------
Tested on: IL-1β, human whole blood
test.description: Whole blood assay for IL-1β production
Assay type: cell-based
experimental.setup: Homo sapiens, Table 27; read-out: Whole human blood IC50
attribute.measured: pIC50
Please note pIC50 is a logarithmic value: minus log10 of concentration in mol/L. Answer with that number alone.

# count of solved cases: 6
| molecule | attribute.measured | recorded.result |
| --- | --- | --- |
| COCC(=O)N1C[C@H](NC(=O)c2cc(C)c(O)c(C)c2)C(=O)N(CC(=O)N[C@H](C=O)CC(=O)O)c2ccc(F)cc21 [Compound 689b-1] | pIC50 | 5.57 |
| O=C[C@H](CC(=O)O)NC(=O)CN1C(=O)[C@@H](NC(=O)c2nccc3ccccc23)CN(C(=O)Cc2cccnc2)c2ccccc21 [Compound 734] | pIC50 | 5.22 |
| CS(=O)(=O)CC(=O)N1C[C@H](NC(=O)c2nccc3ccccc23)C(=O)N(CC(=O)N[C@H](C=O)CC(=O)O)c2ccccc21 [Compound 735] | pIC50 | 5.00 |
| COc1cc(C(=O)N[C@H]2CN(C(=O)CO)c3ccccc3N(CC(=O)N[C@H](C=O)CC(=O)O)C2=O)cc(OC)c1O [Compound 732] | pIC50 | 5.74 |
| CCC(=O)N1C[C@H](NC(=O)c2cc(C)c(O)c(C)c2)C(=O)N(CC(=O)N[C@H](C=O)CC(=O)O)c2ccccc21 [Compound 724] | pIC50 | 5.74 |
| CCOC(=O)N1C[C@H](NC(=O)c2cc(C)c(O)c(C)c2)C(=O)N(CC(=O)N[C@H](C=O)CC(=O)O)c2ccccc21 [Compound 722] | pIC50 | 5.30 |

Ask: Quickly give me recorded pIC50 for COc1cc(C(=O)N[C@H]2CN(C(=O)CO)c3ccccc3N(CC(=O)N[C@H](C=O)CC(=O)O)C2=O)ccc1O [Compound 733]
Result: 5.82

Ask: Quickly give me recorded pIC50 for Nc1c(Cl)cc(C(=O)N[C@H]2CN(C(=O)CO)c3ccccc3N(CC(=O)N[C@H](C=O)CC(=O)O)C2=O)cc1Cl [Compound 697]
Result: 5.30

Ask: Quickly give me recorded pIC50 for Cc1cc(C(=O)N[C@H]2CNc3ccccc3N(CC(=O)N[C@H](C=O)CC(=O)O)C2=O)cc(C)c1O [Compound 727]
Result: 5.64
